// data source = paper PMC3447335

# Tested on: M. tuberculosis H37Rv (ATCC 27294)
# assay explanation: microbe, parasite or virus in culture
# Type: cell-based, Mycobacterium tuberculosis
# experimental conditions: Mycobacterium tuberculosis; % inhibition at 64 μg/mL; read-out: LORA % inh
endpoint name: inhibition at 64 µg/mL (%)
# output: bare number, implied unit %

Worked cases, inhibition at 64 µg/mL given:
IN: Item: COC(C)(C)C[C@@H]1C[C@H](C)[C@H]2CC[C@H](C)c3c2c1c(C)c1nccnc31 Test system: M. tuberculosis H37Rv (ATCC 27294) Read-out: inhibition at 64 µg/mL Value: ?
OUT: 99.9

IN: // same read-out, input: CC(C)=CC1CC(C)C2CCC(C)c3c2c1c(C)c1nc(Cc2ccccc2)oc31 (stereo not shown)
OUT: 13.7

IN: // same read-out, input: CC(C)=CC1CC(C)C2CCC(C)c3c2c1c(C)c1nc(C(C)O)oc31 (stereo not shown)
OUT: 99.8

IN: // same read-out, input: COc1ccc(CC=C(C)C)c(OC)c1O
OUT: -4.7

IN: // same read-out, input: CC(C)=C[C@@H]1C[C@H](C)[C@H]2CC[C@H](C)c3c2c1c(C)c1ncoc31
OUT: 99.7

IN: // same read-out, input: CC(C)=C[C@@H]1C[C@H](C)[C@H]2CC[C@H](C)c3c(O)c(O)c(C)c1c32
OUT: 53.1

***
IN: Item: CCCCCOc1c(C)c2c3c(c1O)[C@@H](C)CC[C@@H]3[C@@H](C)C[C@H]2C=C(C)C Test system: M. tuberculosis H37Rv (ATCC 27294) Read-out: inhibition at 64 µg/mL Value: ?
OUT: 35.1

IN: // same read-out, input: CC(C)=CC1CC(C)C2CCC(C)c3c2c1c(C)c1nc(CCC(=O)O)oc31 (stereo not shown)
OUT: 99.1

IN: // same read-out, input: CC(C)=CC1CC(C)C2CCC(C)c3c2c1c(C)c1nc(C)oc31 (stereo not shown)
OUT: 99

###

# Tested on: M. tuberculosis H37Rv (ATCC 27294)
# assay explanation: microbe, parasite or virus in culture
# Type: cell-based, Mycobacterium tuberculosis
# experimental conditions: Mycobacterium tuberculosis; % inhibition at 64 μg/mL; read-out: LORA % inh
inhibition at 64 µg/mL values, listed per item
# output: bare number, implied unit %

IN: So what's the measured inhibition at 64 µg/mL for this one? CCCCCc1nc2c(C)c3c4c(c2o1)[C@@H](C)CC[C@@H]4[C@@H](C)C[C@H]3C=C(C)C
OUT: 22.6

IN: // same read-out, input: CC(C)=CC1CC(C)C2CCC(C)c3c2c1c(C)c1nc(Cc2cnc[nH]2)oc31 (stereo not shown)
OUT: 92.5

IN: // same read-out, input: COc1c(C)c2c3c(c1OC(=O)N(C)C)[C@@H](C)CC[C@@H]3[C@@H](C)C[C@H]2C=C(C)C
OUT: 80

IN: // same read-out, input: COc1c(C)c2c3c(c1OC)[C@@H](C)CC[C@@H]3[C@@H](C)C[C@H]2C=C(C)C
OUT: 77.5

IN: // same read-out, input: CC(C)=C[C@@H]1C[C@H](C)[C@H]2CC[C@H](C)c3c2c1c(C)c1ocnc31
OUT: 100

IN: // same read-out, input: COc1c(C)c2c3c(c1O)[C@@H](C)CC[C@@H]3[C@@H](C)C[C@H]2C=C(C)C
OUT: 99.7

# input for lookup
IN: So what's the measured inhibition at 64 µg/mL for this one? CC(C)=CC1CC(C)C2CCC(C)c3c2c1c(C)c1nc(CCC(N)=O)oc31 (stereo not shown)
OUT: 99
